# credit: the supplement of paper PMC10567573

B1: FCHO1 (parent)
chain: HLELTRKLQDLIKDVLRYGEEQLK

Variants of: B1
Experiment: protein stability index of a GFP-peptide fusion (GPS, HEK-293T) (PSI 1-6); higher = more stable;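 further: lentivirally expressed fusions sorted by FACS into six bins by GFP to DsRed ratio, PSI derived from sequencing read proportions per bin multiplied by bin number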
Settings: c terminus: a fixed tail appended
Task for the reader: assign each of the following variants its reported protein stability index.
Just the number, please, no unit after it.

Find the measured protein stability index of HLELVRKLQDLIKDVLRYGEEQLK [T5V] and report it.
2.63

Supply recorded protein stability index for HLELTRKLQDLIKDVLRYGPEQLK [E20P] here.
2.51

Identify protein stability index associated with the variant HLELTRKLQDLIKDVLRYGEEQPK [L23P]
1.73

Please report protein stability index for the following variant: HCELTRKLQDLIKDVLRYGEEQLK [L2C]
3.33

// fetch protein stability index given entry HLELTRKPQDLIKDVLRYGEEQLK [L8P]
2.71

Give protein stability index for HLELTRKLQDLIKDVLRYGEEELK [Q22E]
2.37

Look up and report measured protein stability index for this entry: HLDLTRKLQDLIKDVLRYGEEQLK [E3D]
2.84

Item HLELTRKLPDLIKDVLRYGEEQLK [Q9P] : provide protein stability index
2.81

Look up and report measured protein stability index for this entry: HLELTRKLQDLIKDVLRYVEEQLK [G19V]
2.02

Supply protein stability index value. Item: HLELTLKLQDLIKDVLRYGEEQLK [R6L]
1.29

Read the entry HLELMRKLQDLIKDVLRYGEEQLK [T5M] and write its reported protein stability index.
3.28

Return protein stability index (reported value) for this variant: HLELTFKLQDLIKDVLRYGEEQLK [R6F]
1.9

Determine its reported protein stability index: HLELTRKLQDLIRDVLRYGEEQLK [K13R]
2.3

For HLELQRKLQDLIKDVLRYGEEQLK [T5Q] , write its protein stability index.
3.54

Kindly indicate its recorded protein stability index. Item: HLELTRKLQDLIWDVLRYGEEQLK [K13W]
2.16

Return reported protein stability index. Input variant: YLELTRKLQDLIKDVLRYGEEQLK [H1Y]
2.02

Name the recorded protein stability index of the item HLELTRKLLDLIKDVLRYGEEQLK [Q9L] in your answer.
2.26

Indicate the recorded protein stability index value for this variant: HLELTRMLQDLIKDVLRYGEEQLK [K7M]
3.46

Recall and state the measured protein stability index for MLELTRKLQDLIKDVLRYGEEQLK [H1M] .
2.23

Give the reported protein stability index for this variant. HLELSRKLQDLIKDVLRYGEEQLK [T5S]
3.79

In one line, give reported protein stability index of the entry HLELTRKLQDLIADVLRYGEEQLK [K13A] .
2.14

Using the record for HLEKTRKLQDLIKDVLRYGEEQLK [L4K] , state its measured protein stability index.
1.43
